Values were extracted from patent US11512090B2.

Known pIC50 of a selection of molecules
assayed.system: M3 (Homo sapiens, UniProt P20309)
Sequence (P20309 whole entry): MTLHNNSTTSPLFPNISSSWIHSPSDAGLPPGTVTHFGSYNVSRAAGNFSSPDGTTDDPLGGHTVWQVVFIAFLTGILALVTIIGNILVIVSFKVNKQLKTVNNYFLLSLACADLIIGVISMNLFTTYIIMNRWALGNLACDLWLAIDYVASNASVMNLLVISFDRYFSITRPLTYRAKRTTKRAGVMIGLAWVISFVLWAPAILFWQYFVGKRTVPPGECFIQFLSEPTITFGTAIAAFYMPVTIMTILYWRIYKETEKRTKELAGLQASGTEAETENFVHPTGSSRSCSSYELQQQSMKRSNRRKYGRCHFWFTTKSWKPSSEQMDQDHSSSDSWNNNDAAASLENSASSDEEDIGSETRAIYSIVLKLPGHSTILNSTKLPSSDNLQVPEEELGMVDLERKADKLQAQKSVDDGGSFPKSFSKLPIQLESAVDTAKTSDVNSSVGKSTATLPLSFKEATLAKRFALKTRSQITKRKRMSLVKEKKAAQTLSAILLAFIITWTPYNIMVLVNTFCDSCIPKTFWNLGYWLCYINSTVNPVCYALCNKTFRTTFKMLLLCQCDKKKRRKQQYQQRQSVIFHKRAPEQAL
assay.procedure: In vitro functional assay of muscarinic acetylcholine receptor activity, M3
Assay type: cell-based
assay.context: antagonist IC50 at M3; read-out: M3 IC50
pIC50: −log10 of the molar value.

Before answering, review these 5 worked examples.
Challenge: Enter pIC50 (test system M3 (Homo sapiens, UniProt P20309)) for Cc1cc(Cl)cnc1N1CCN(C(=O)CCCc2cccc3ncccc23)[C@H](C)C1
Response given: 6.00 to 7.00

Challenge: GET pIC50 where system = M3 (Homo sapiens, UniProt P20309) and item = COc1cnc2cccc(CCOCC(=O)N3CC4CCC(C3)N4c3ccc(C#N)cn3)c2c1
Response given: 5.00 to 6.00

Challenge: Send back M3 (Homo sapiens, UniProt P20309) pIC50 of Cc1ncccc1N1CCN(C(=O)CCCc2cccc3ncccc23)[C@@H](C)C1 only.
Response given: < 5.00

Challenge: GET pIC50 | system: M3 (Homo sapiens, UniProt P20309) | item: N#Cc1cnccc1N1CCN(C(=O)CCCc2cccc3ncccc23)CC1
Response given: 5.00 to 6.00

Challenge: Look up and report pIC50, with M3 (Homo sapiens, UniProt P20309) as system, for C[C@H]1CN(c2ccnc(N)c2)CCN1C(=O)CCS(=O)(=O)c1cccc2ncsc12
Response given: 5.00 to 6.00

New cases:
Challenge: Find the measured pIC50 of N#Cc1ccc(N2C3CCC2CN(C(=O)CCS(=O)(=O)c2cccc4ncsc24)C3)cn1 with M3 (Homo sapiens, UniProt P20309) as test system.
Response given: 6.00 to 7.00

Challenge: Report the value of pIC50 obtained on M3 (Homo sapiens, UniProt P20309) for Cc1cc(F)cnc1N1CCN(C(=O)COCc2cccc3ncsc23)[C@@H](C)C1 .
Response given: < 5.00

Challenge: For M3 (Homo sapiens, UniProt P20309), give the measured pIC50 of the entry N#Cc1cc(N2CCN(C(=O)CCCc3cccc4ncccc34)CC2)ccn1
Response given: 5.00 to 6.00

Challenge: # return pIC50 for O=C(CCCc1cccc2ncccc12)N1CCN(c2ccc(F)cn2)CC1 , test system: M3 (Homo sapiens, UniProt P20309)
Response given: < 5.00

----------
Form field: IC50 (one value per entry).
assayed.system: UniProt P08172
Sequence (P08172 whole entry): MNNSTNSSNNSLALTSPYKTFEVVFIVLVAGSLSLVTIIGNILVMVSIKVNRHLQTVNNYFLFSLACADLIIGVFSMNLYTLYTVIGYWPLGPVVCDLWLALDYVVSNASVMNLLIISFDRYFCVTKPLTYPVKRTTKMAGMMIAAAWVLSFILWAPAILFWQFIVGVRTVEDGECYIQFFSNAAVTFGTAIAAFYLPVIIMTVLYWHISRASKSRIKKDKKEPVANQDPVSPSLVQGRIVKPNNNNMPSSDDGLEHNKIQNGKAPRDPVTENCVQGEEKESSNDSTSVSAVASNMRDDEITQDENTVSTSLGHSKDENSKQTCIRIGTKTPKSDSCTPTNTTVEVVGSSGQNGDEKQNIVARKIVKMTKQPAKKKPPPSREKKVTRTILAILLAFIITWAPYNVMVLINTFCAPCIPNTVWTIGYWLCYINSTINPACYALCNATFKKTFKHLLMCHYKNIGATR
assay.procedure: In vitro functional assay of muscarinic acetylcholine receptor activity, M2
Type: cell-based
assay.context: antagonist IC50 at M2; read-out: M2 IC50
Procedure: [The procedure below names another target; the source lists this target under the same test.] CHO-K1 cells stably expressing human M1 receptor with Aequorin (Perkin Elmer) were grown in F12 media, 10% FBS with 0.4 mg/mL geneticin and […]. Cells were grown to confluence and frozen down to be assayed at a later date. […] Calcium flux was measured using the FlexStation 3 (Molecular Devices). […] Antagonist activity was analyzed as a concentration dependent decrease in the EC80 acetylcholine response. […] The IC50 of the compounds was calculated from the dose response curve.

Would you please look over these solved cases?
Challenge: For the molecule N#Cc1ccc(N2C3CCC2CN(C(=O)COCCc2cccc4ncnn24)C3)nc1 [Example 183] , give its measured IC50 value.
Response given: > 10 µM

Challenge: Quick one: give measured IC50 for C[C@H]1CN(c2cc[nH]c(=O)c2)CCN1C(=O)CCS(=O)(=O)c1cccc2ncsc12 [Example 117]
Response given: > 10 µM

Challenge: Specify measured IC50 for Cc1nc2cccc(CCCC(=O)N3CCN(c4ccncc4F)CC3)c2o1 [Example 73] .
Response given: 1 to 10 µM

Next:
Challenge: Quote IC50 reported for Cc1cc(C#N)cnc1N1CC2CCC(C1)N2C(=O)CCNCc1cccc2ncsc12 [Example 161] please.
Response given: 1 to 10 µM

Challenge: Return reported IC50. Input molecule: Cc1cc(F)cnc1N1CCN(C(=O)CCS(=O)(=O)c2cccc3ncccc23)[C@@H](C)C1 [Example 96]
Response given: 1 to 10 µM

Challenge: Determine its reported IC50: N#Cc1ccc(N2C3CCC2CN(C(=O)COCc2cccc4ncnn24)C3)nc1 [Example 182]
Response given: > 10 µM
